Origin of measurements: PubChem BioAssay

measurement.protocol: resazurin metabolic signal in HepG2 cells – cell-based, resazurin fluorescence, 24 h, PK04 Diversity Set, profiling panel (AID 1172); also: test concentration not given here
settings: HepG2 viability, higher = more signal
# z-score values compiled below
reported.endpoint: z-score

{"molecule": "COc1ccc(C(=O)Nc2cccc(CN3C(=O)[C@@]4(O[C@@H](CC(=O)N5CCC[C@H]5CO)[C@H]([Si](C)(C)c5ccc(OC)cc5)[C@H]4C)c4ccccc43)c2)cc1", "readout.number": -0.429}
{"molecule": "CCOC(=O)C[C@H]1[C@H](OC(=O)c2ccccc2-c2ccccc2)[C@@H](NC(=O)c2ccc3ccccc3c2)c2cc(OCCCO)ccc2N1C(=O)Cc1ccc(OC)cc1", "readout.number": -0.397}
{"molecule": "C=C(COC)/C(=C/C[C@H](OC(C)=O)c1ccccc1OCCO)c1cc(C(=O)OC)ccc1OC", "readout.number": -0.216}
{"molecule": "CN(C)CCCNC(=O)[C@@]1(Cc2ccccc2I)c2ccccc2C(=O)N(C2CCCCC2)[C@H]1c1ccc(CO)cc1", "readout.number": -6.39}
{"molecule": "CN(C)c1ccc(C(O)C2C=CC3C(=O)N(Cc4ccccc4)C(=O)C3N2n2cnnc2)cc1 (stereo not drawn)", "readout.number": -0.659}
{"molecule": "CC[C@@H]1C=C(C(=O)O)[C@H](c2ccc(OC)cc2)N1S(=O)(=O)c1ccc(C)cc1", "readout.number": -0.896}
{"molecule": "O=C1O[C@H](Cc2ccccc2)[C@@H]2[C@H]3C=CCCC=C3CN2[C@H]1Cc1ccc(O)cc1", "readout.number": 1.28}
{"molecule": "CCOC(=O)C1=CC[C@@H](c2ccccc2)N(S(=O)(=O)c2ccc(C)cc2)[C@H]1c1ccccc1I", "readout.number": 0.76}
{"molecule": "COC(=O)[C@@]1(Cc2ccccc2)[C@H]2c3cc(C(=O)N4CCCC4)n(Cc4ccc(OC)c(OC)c4)c3C[C@H]2CN1C(=O)c1ccccc1", "readout.number": 0.181}
{"molecule": "CC(C)N1C(=O)C[C@@](C(=O)NCCN2CCOCC2)(c2ccc([N+](=O)[O-])cc2)[C@H]1c1ccc(CO)cc1", "readout.number": 1.68}
{"molecule": "O=C1O[C@@H](c2ccccc2)[C@@H](c2ccccc2)N2[C@@H](c3ccc(OCCO)cc3)[C@]3(C(=O)Nc4ccc(C#CCCO)cc43)[C@@H](C(=O)O)[C@H]12", "readout.number": -0.0464}
{"molecule": "CCOC(=O)C1=CC[C@@H](c2ccc(OC)cc2)N(S(=O)(=O)c2ccc(C)cc2)[C@H]1c1ccc(C)cc1", "readout.number": 0.164}
{"molecule": "CC1CC/C=C\\[C@H]2OC34C=CCN(c5ccc6ccccc6c5)C(=O)[C@H]3N(C(C)CO)C(=O)[C@@H]4C2C(=O)O1 (stereo partly drawn)", "readout.number": -0.0727}
{"molecule": "O=C1O[C@@H](c2ccccc2)[C@@H](c2ccccc2)N2[C@@H](c3ccc(OCCO)cc3)[C@]3(C(=O)Nc4ccc(C#CC5(O)CCCCCC5)cc43)[C@@H](C(=O)Nc3nc4ccccc4s3)[C@H]12", "readout.number": -0.369}
{"molecule": "C=CCOC(=O)[C@@H]1[C@H]2C(=O)O[C@H](c3ccccc3)[C@H](c3ccccc3)N2[C@H](c2ccc(OCCOC(=O)[C@H]3C[C@H]4C(=O)N5CCC[C@H]5C(=O)N4[C@H]3c3cccc(OCCO)c3)cc2)[C@@]12C(=O)Nc1ccc(I)cc12", "readout.number": 0.0829}
{"molecule": "CO[C@H]1O[C@H](CO)[C@@H](OC(=O)Nc2ccccc2)[C@H](OC(=O)Nc2ccccc2)[C@H]1OC(=O)Nc1ccccc1", "readout.number": -1.08}
{"molecule": "CCC(CC)C(O)C1C=CC2C(=O)N(c3ccccc3)C(=O)C2N1Nc1ccccc1F (stereo not drawn)", "readout.number": 0.85}
{"molecule": "COc1cc(CO)cc(I)c1O[C@H]1C=C(C(=O)NCCO)C[C@@H]2O[C@H]12", "readout.number": -0.876}
{"molecule": "COc1ccc(C(=O)Nc2cccc(CN3C(=O)[C@]4(O[C@H](CC(=O)N5Cc6ccccc6C[C@H]5CO)[C@@H]([Si](C)(C)c5ccc(OC)cc5)[C@@H]4C)c4ccccc43)c2)cc1", "readout.number": 0.256}
{"molecule": "CCOC(=O)C[C@H]1[C@H](OC(=O)c2cc3ccccc3oc2=O)[C@@H](NC(=O)CC(C)C)c2cc(OCCCO)ccc2N1C(=O)Cc1ccc(OC)cc1", "readout.number": -0.74}
{"molecule": "NC(=O)N1C(=O)C2C(C1=O)C1C=C(CCCO)C2C(C2CC2)N1Cc1sc2ccccc2c1Cl (stereo not drawn)", "readout.number": 0.146}
{"molecule": "COc1ccccc1CN1C(=O)c2ccccc2[C@](Cc2ccccc2I)(C(=O)NCC(C)C)[C@@H]1c1ccc(CO)cc1", "readout.number": 0.52}
{"molecule": "C[N+](C)(C)CCCCNC(=O)[C@H]1C[C@H]2C(=O)N[C@@H](Cc3ccccc3)C(=O)N2[C@H]1c1cccc(OCCO)c1", "readout.number": -3.26}
{"molecule": "CCCCC(=C=CC[C@H](O)c1ccc(CO)o1)CCO", "readout.number": -0.585}
{"molecule": "COc1ccc([Si](C)(C)[C@H]2[C@H](CC(=O)N3Cc4ccccc4C[C@H]3CO)O[C@@]3(C(=O)N(c4ccccc4)c4ccccc43)[C@@H]2C)cc1", "readout.number": 0.635}
{"molecule": "CC(C)C(CO)N1C(=O)[C@@H]2C3C(=O)OCCC/C=C\\[C@H]3OC23C=CCN(Cc2ccccc2)C(=O)[C@@H]13 (stereo partly drawn)", "readout.number": 0.49}
{"molecule": "COCCCNC(=O)[C@@]1(CCS(=O)(=O)c2ccccc2)COC(c2ccc(OCCCO)cc2)=N1", "readout.number": -0.721}
{"molecule": "COc1ccc(C(O)C2C=CC3C(=O)N(C)C(=O)C3N2N(c2ccccc2)c2ccccc2)cc1 (stereo not drawn)", "readout.number": -0.326}
